# target-of-assay: pSTAT3 (pY705-STAT3) (Homo sapiens)
# Construct: host or cells: cryopreserved PBMC
# Sequence (P40763 whole entry): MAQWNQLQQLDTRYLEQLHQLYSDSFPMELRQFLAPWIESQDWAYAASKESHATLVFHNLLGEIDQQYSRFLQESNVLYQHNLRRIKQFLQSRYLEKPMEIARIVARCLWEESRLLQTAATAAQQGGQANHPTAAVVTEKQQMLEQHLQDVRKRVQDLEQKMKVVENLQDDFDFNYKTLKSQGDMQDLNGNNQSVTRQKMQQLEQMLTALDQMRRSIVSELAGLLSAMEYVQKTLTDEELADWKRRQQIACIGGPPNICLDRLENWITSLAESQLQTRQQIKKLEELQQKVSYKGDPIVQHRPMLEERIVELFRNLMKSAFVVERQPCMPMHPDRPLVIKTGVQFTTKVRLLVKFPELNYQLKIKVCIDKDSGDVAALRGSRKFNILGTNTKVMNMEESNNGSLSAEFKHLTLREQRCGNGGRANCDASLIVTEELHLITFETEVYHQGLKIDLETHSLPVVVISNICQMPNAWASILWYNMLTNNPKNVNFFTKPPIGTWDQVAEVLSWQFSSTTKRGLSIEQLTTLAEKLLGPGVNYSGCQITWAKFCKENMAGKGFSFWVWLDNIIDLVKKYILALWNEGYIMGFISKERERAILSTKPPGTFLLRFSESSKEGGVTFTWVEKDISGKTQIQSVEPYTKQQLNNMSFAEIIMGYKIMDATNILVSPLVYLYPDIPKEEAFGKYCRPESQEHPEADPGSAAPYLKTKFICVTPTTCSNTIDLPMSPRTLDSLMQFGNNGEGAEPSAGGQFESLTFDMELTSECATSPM
# measurement-notes: MSD-pSTAT-PBMC Assay (pSTAT3, IL-6 stimulated)
# Format: cell-based
# particulars: PBMC, compound 3 hrs, then 10 ng/mL IL-6 for 10 min; MSD pY705-STAT3; read-out: pSTAT3
measured-attribute: IC50

-- ask Check the records and state IC50 for CC(C)(C)C(=O)OCOP(=O)(OCOC(=O)C(C)(C)C)C(F)(F)c1ccc2sc(C(=O)N[C@H]3C[C@H]4C[C@H]4C[C@H]4CC[C@@H](C(=O)N5C[C@@H](C#N)[C@H](c6ccccc6)C5)N4C3=O)cc2c1
-- reply < 100 nM

-- ask Check the records and state IC50 for CC(C)OC(=O)[C@H](C)N[P@](=O)(Cc1ccc2sc(C(=O)N[C@H]3C[C@@H]4C[C@@H]4C[C@H]4CC[C@@H](C(=O)N5CC(C(=O)N6CCOCC6)C5)N4C3=O)cc2c1)Oc1ccccc1 (single isomer, unassigned)
-- reply 1000 to 3000 nM

-- ask Check the records and state IC50 for COCCOC(=O)OCOP(=O)(OCOC(=O)OCCOC)C(F)(F)c1ccc2sc(C(=O)N[C@H]3C[C@@H]4C[C@@H]4C[C@H]4CC[C@@H](C(=O)N5CC(C(=O)N6CCOCC6)C5)N4C3=O)cc2c1
-- reply 100 to 1000 nM

-- ask Check the records and state IC50 for CC(C)(C)C(=O)OCOP(=O)(OCOC(=O)C(C)(C)C)C(F)(F)c1ccc2sc(C(=O)N[C@H]3C[C@@H]4C[C@@H]4C[C@H]4CC[C@@H](C(=O)N5CCN(C(=O)c6cn[nH]c6)CC5)N4C3=O)cc2c1
-- reply 100 to 1000 nM

-- ask Check the records and state IC50 for CC(C)(C)C(=O)OCOP(=O)(OCOC(=O)C(C)(C)C)[C@@H](F)c1ccc2sc(C(=O)N[C@H]3C[C@@H]4C[C@@H]4C[C@H]4CC[C@@H](C(=O)N5CC(C(=O)N6CCOCC6)C5)N4C3=O)cc2c1 (single isomer, unassigned) [Compound 183]
-- reply < 100 nM
